Listed below: SPOT peptide array binding signal intensity values for each entry.
- TARGET UNDER TEST: AgCyk3
- MEASUREMENT PROTOCOL: SPOT peptide array binding signal intensity (averaged, normalized) (arbitrary units (background-subtracted, floor 0; scale differs between SH3 domains)); higher = stronger binding of the SH3 domain to the peptide
Form rule: numeric answer, no unit written next to it.

>>> reported("YHSRRHPLALGFKYV")
4

In: Could you share which SPOT peptide array binding signal intensity value was measured for `PKRRAPPPVPKKPSS` ?
Out: 1

In: `VGFRLALKFPSRITG` , same question.
Out: 107
